Data credit: patent US11419870B2

- experimental-details: Pharmacokinetics of Compound A in SJSA-1 tumor-bearing rat (plasma, tumor, tissues; UPLC/MS-MS)
- Type: in vivo, nude rat
- condition-set: nude (Harlan), rat; single oral 27 mg/kg; all matrices (plasma, tumor and liver)
- Method: Subcutaneous tumors were induced by concentrating 1.0×10^7 SJSA-1 cells in 50% Matrigel® and injecting in the right flank of Harlan nude rats. Efficacy experiment could start 14 days post cell injection. […] Tissues were homogenized in an equal volume of HPLC-Water (Water for chromatography, Merck) using the Fast Prep®-24 system (M.P. Biomedicals, Irvine, Calif., USA). […] The limit of quantification (LOQ) for the compound was set to 0.7 ng/mL (CV and overall bias less than 30%). […]
measure-name: Tmax (h)
Hi! Could you send only the number? It should be in h, unit omitted.

For "COc1ncc(-c2nc3c(n2C(C)C)[C@H](c2ccc(Cl)cc2)N(c2cc(Cl)cn(C)c2=O)C3=O)c(OC)n1" , what is its reported Tmax?
3
